So I've got a bunch of sequences here, and I need their phosphorylation enrichment values.
target: Fyn (UniProt P06241); assay: phosphorylation enrichment, bacterial display (enrichment ratio); higher = better substrate or ligand; peptides without Tyr show the background;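 also: 11-residue human phosphosite peptides and single-mutation variants displayed on the E. coli surface, counted by deep sequencing, each peptide's frequency after selection divided by its frequency in the unselected input library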;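 also: frequency after pTyr selection over input frequency; kinase dosed for 20-30% of maximal phosphorylation in three min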
Sequence (P06241 whole entry, looked up): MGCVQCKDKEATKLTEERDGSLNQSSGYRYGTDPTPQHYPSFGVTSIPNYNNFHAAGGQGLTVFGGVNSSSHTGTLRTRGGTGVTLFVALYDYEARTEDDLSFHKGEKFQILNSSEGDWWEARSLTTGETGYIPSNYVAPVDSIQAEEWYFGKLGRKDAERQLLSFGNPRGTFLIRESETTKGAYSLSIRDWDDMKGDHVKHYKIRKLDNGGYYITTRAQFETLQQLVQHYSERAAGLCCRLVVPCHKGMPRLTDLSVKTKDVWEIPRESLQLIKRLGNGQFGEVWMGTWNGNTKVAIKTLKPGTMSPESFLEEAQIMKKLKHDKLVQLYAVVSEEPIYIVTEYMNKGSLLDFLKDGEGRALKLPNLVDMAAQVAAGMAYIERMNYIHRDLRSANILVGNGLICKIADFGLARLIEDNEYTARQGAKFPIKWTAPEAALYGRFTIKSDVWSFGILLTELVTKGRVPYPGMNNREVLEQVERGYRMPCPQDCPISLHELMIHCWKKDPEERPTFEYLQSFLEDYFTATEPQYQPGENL
Give the value as a plain number.

# input May I ask what phosphorylation enrichment has been recorded for SLEKSYELPDG [ACTA1_Y242] ?
# output 0.49

# input Also need IFRAAYFGVFD [SLC25A4_Y191_YF] , thanks.
# output 0.497

# input What about this sequence? GKSHIYFWTLE [EML2_Y230]
# output 0.513

# input Queued: GQETSYIEDNC [PAH_Y24]
# output 0.507

# input Query PQGVRYTFTID [DCX_Y103_I104T_YF] next
# output 0.7

# input And the next one, PTEAQYRFIFM [PTPN11_Y511_Q506P_YF] ?
# output 0.939

# input For YPLELYERVRI [PRKCG_Y312_M317I] then?
# output 0.584

# input Then VEDQYYCVDCY [FHL1_Y208] ?
# output 2.34

# input Similarly, AADGRYEVLFL [SEMA3F_Y478] ?
# output 0.447

# input Cool, now GEEIKYTLWLS [OTC_Y55_M56T]
# output 0.418

* * *

molecular target: Fes (UniProt P07332); assay: phosphorylation enrichment, bacterial display (enrichment ratio); higher = better substrate or ligand; peptides without Tyr show the background
Sequence (P07332 whole entry, looked up): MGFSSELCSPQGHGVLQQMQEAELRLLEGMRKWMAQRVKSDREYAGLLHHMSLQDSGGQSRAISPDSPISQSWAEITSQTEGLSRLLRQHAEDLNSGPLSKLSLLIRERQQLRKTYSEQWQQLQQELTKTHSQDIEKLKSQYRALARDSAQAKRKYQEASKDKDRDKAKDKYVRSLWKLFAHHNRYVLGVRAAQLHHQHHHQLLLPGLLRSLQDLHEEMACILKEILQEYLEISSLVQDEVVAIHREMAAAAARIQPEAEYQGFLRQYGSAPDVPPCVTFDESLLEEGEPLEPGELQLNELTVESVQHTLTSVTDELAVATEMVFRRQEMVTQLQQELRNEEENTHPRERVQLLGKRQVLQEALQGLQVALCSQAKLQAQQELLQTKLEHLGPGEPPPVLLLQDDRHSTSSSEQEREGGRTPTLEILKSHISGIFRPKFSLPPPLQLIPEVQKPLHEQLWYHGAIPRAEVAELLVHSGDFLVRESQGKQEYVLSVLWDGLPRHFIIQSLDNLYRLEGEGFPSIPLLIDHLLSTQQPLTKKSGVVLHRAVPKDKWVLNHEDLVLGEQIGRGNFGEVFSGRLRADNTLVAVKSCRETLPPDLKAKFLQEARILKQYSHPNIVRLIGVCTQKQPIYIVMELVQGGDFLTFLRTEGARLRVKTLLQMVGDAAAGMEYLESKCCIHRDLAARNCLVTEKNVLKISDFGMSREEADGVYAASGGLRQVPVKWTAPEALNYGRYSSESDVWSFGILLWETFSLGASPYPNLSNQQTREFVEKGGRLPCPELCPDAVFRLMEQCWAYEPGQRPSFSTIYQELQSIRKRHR
I'd appreciate it if you could supply phosphorylation enrichment values for the items below.
I'd appreciate a reply containing only the number, no unit.

# input Observed phosphorylation enrichment on Fes (UniProt P07332) for AMIADYMFWLG [SPATA16_Y290] , please.
# output 1.31

# input One more sequence: KLLPEYPGVLS [DHFR2_Y163]
# output 0.657

# input Also RRAKGYPIDLF [ITGB2_Y125_YF] ?
# output 0.993

# input # repeat for IVEYAYNDKAV [PUM3_Y259_I264V]
# output 1.1

# input Can you check SHSMRYFSTAV [HLA-C_Y31_D33S] next?
# output 0.763

# input Same thing, different sequence: LSSEMCVKSFT [F5_Y2149_Y2149C_YF]
# output 1.45

# input Check AGVDRYSLGTS [C5orf42_Y1451_P1446A] too.
# output 0.599

# input Lookup YRTGHYLCNAC [GATA1_Y223_D218Y]
# output 0.506

# input Entry to check: SLEKSYELPDG [ACTA1_Y242]
# output 1.15

# input Would you mind doing DEDEEYEYMNR [ERBB3_Y1197] as well?
# output 1.23

# input Same question, MKKQKYGRIIM [HSD17B4_Y143] this time
# output 0.89

# input Lookup CTTIHYTYMCN [TP53_Y234_N235T]
# output 1.07

# input Do the same for FRNSLYAPDFS [FAM92A_Y226_YF] please
# output 0.899

# input Note, next up: LKYAIYFEARE [LAMA2_Y1258]
# output 2.41

# input Another: LQLLGDRPVFS [CHST6_Y358_Y358D_YF]
# output 0.795

# input Then VNKIFHPDFIV [LIG3_Y768_Y768H_YF] ?
# output 0.871

# input Another: RPSRQYATLDV [SCAMP3_Y35]
# output 0.461

# input What about FTYDPYSEEDP [IL2RB_Y387] ?
# output 1.15

# input Repeat for the following sequence: PMWHPYKVDVT [TP53TG5_Y255]
# output 1.27

# input Please answer likewise for EKQLLYSENKT [FRK_Y132]
# output 0.919

# input Repeat for the following sequence: FLRKEYGGLNV [CBR3_Y81]
# output 0.618

# input Same again, this time with YVFSFYHAFSG [ACTN4_Y265_S262F]
# output 1.43

# input Repeat for the following sequence: YRDALYKFMVD [PHEX_Y250]
# output 1.33

# input Next up: SSDKVYAHQMV [MLH1_Y379]
# output 0.573

# input Moving on to SDFSSYARTSI [TERT_Y949_YF]
# output 0.834

# input QKINNYLTVPA [SLC9A1_Y683] , same question.
# output 0.727

# input For RTLSEYARPHV [RERE_Y1259] then?
# output 1.11

# input And what about the sequence SNNFIYTTLGV [FAM83B_Y639_K640T_YF] ?
# output 0.885

# input Check LKGQVYILVRE [ASS1_Y359_G362V] too.
# output 1.36

# input Next entry: KKMKCYHVGKV [HARS2_Y151_R150C]
# output 0.723

# input How about KAIMTYVPSFF [ACTN4_Y260_S262P_YF] ?
# output 0.838

* * *

target: Jak2 (UniProt O60674); assay: phosphorylation enrichment, bacterial display (enrichment ratio); higher = better substrate or ligand; peptides without Tyr show the background
Sequence (O60674 whole entry, looked up): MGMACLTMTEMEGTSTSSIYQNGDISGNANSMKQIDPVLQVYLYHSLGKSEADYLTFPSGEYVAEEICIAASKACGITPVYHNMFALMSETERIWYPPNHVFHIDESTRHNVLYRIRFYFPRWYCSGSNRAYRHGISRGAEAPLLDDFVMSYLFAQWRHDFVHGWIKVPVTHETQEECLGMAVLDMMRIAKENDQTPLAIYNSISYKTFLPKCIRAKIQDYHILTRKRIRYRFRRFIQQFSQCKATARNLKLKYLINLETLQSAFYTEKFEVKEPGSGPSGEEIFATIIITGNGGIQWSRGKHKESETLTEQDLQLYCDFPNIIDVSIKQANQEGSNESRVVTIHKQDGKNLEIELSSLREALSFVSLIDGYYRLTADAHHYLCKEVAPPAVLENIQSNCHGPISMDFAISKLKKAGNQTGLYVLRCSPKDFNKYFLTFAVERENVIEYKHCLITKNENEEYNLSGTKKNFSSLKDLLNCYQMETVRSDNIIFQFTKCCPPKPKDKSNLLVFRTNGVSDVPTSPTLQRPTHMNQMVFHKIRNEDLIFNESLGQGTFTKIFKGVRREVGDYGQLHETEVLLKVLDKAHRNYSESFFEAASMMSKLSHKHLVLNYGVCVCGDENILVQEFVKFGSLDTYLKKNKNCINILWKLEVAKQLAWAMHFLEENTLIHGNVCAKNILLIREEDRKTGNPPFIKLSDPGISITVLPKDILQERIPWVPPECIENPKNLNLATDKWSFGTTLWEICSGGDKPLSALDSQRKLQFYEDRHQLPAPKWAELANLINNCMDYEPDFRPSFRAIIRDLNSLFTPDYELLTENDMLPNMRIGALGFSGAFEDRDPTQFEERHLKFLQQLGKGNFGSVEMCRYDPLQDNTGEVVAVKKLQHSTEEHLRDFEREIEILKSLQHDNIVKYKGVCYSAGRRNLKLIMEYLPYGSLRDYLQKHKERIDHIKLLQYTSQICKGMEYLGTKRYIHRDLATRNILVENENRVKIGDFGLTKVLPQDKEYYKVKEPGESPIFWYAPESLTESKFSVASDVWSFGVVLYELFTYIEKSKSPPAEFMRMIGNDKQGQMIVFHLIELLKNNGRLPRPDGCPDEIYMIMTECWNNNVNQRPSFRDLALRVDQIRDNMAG
Outcome: class 1 for phosphorylation enrichment of at least 1; class 0 for anything lower.

# input Tell me whether phosphorylation enrichment is at least 1 here: MEIHAYLKLLE [LMNA_Y376_R377L]
# output class 1

# input Entry to check: EYLQKYKGFKI [SYNE1_Y6953]
# output class 0

# input Field entry: LGQRIYQFIRS [DYRK1B_Y271_Q275R_YF]
# output class 0

# input Now the sequence DLVHPYVHKIL [SF3B1_Y570_R568H]
# output class 1

# input Again, but for KLLPEYPGVLS [DHFR2_Y163]
# output class 0

# input Next sequence: ADSLRYIFPKL [EIF2B3_Y92_YF]
# output class 0

# input Follow-up entry: QMIETYFDFRL [NSMF_Y506]
# output class 1

# input One more sequence: GHEYIYVDRMQ [PDGFRB_Y581_P584R]
# output class 0

# input Then this sequence: SSEFHYVGGFF [CTSC_Y347_YF]
# output class 0

# input Note, next up: HFGCVYYGTLL [MET_Y1093_H1094Y]
# output class 1

# input Now give it for KKMKCYHVGKV [HARS2_Y151_R150C] too.
# output class 0

# input Can you handle SDVWSYGVTMW [ZAP70_Y525] next?
# output class 1

# input Then PMWHPYKVDVT [TP53TG5_Y255] ?
# output class 0

# input Subsequent entry: DRIVNYSRASI [ATP7A_Y1459]
# output class 0

# input Also need APGDAYGDAGF [SYP_Y250_YF] , thanks.
# output class 0

# input # repeat for SPFMLYQFLKQ [RPAP3_Y567_D564Y_YF]
# output class 1

# input Same question for KNNSIYVLANI [VNN1_Y134_V136L] please.
# output class 1

# input Item: QGLRLYRPHLP [BTK_Y617_A622P]
# output class 0

# input And for QRAADYYSQQM [GBP6_Y333] ?
# output class 0

# input Then LNPDGYEKAYE [CPXM2_Y427] ?
# output class 1

# input What would you report for YQCKHYACIRQ [TIMP3_Y182_S179C] ?
# output class 0

# input And what about the sequence ASYGPYTRVQS [FOXL2_Y258] ?
# output class 0

# input And for RGLQVYHKRNA [LRP2_Y2010_R2012K] ?
# output class 0

# input Moving on to NQNIGYKLGHR [KCNN3_Y268]
# output class 0

# input Input QNTGNYYDLYG [PTPN11_Y62_D61N]
# output class 1

# input Subsequent entry: VFPIDYYFPPQ [AR_Y552_L548F]
# output class 1

# input Next sequence up: ARMTNYGLPRF [TSPAN12_Y138_YF]
# output class 0

# input What about FSAPNYCYRCG [PPP2CA_Y265] ?
# output class 0

# input Now give it for ETMNKYDLSGR [MYEF2_Y164] too.
# output class 0

# input For TSAEGYQDVRD [ABLIM1_Y439_P434T] then?
# output class 1

* * *

Kindly state phosphorylation enrichment for each of the entries shown.
molecular target: EPHB2 (UniProt P29323); assay: phosphorylation enrichment, bacterial display (enrichment ratio); higher = better substrate or ligand; peptides without Tyr show the background
Sequence (P29323 whole entry, looked up): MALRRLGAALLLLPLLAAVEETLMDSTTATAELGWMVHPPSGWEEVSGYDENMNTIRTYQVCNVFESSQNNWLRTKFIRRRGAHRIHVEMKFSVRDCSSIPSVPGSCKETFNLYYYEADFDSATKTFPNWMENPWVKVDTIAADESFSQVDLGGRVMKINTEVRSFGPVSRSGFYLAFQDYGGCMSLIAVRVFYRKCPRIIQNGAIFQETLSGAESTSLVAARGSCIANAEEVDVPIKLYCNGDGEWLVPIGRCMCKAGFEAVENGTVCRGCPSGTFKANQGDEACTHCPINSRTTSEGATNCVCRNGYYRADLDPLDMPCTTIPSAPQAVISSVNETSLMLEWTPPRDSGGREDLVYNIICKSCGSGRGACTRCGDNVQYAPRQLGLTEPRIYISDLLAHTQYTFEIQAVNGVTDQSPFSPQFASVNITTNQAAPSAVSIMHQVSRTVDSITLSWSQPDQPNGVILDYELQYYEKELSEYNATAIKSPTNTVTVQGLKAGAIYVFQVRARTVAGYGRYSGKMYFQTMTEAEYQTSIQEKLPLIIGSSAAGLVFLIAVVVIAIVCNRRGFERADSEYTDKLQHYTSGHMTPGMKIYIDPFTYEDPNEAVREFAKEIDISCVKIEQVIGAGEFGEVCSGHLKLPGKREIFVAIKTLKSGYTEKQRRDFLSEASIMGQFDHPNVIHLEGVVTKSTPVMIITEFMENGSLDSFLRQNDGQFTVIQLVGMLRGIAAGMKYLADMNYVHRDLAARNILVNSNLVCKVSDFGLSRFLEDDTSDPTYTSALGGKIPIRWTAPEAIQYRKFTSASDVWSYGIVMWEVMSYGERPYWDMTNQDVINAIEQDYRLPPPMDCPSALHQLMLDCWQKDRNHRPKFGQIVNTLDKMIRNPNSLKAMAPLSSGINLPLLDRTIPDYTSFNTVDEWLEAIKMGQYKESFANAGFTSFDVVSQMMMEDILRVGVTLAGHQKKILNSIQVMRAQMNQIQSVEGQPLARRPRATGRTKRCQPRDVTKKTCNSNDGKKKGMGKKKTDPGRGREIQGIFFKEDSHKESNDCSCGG
Keep it simple and answer with nothing but the number.

# input Fill in: phosphorylation enrichment of TEAEPYFCSLR [NPHS1_Y1138_R1140C_YF] is ___
# output 0.615

# input Now the sequence AGLEEYSAMRD [HRAS_Y64_Q61L]
# output 0.585

# input Same question for GAVGHYVLAER [HFE_Y342_M339V] please.
# output 0.415

# input // query: RVGNMYVRGLS [ABCG8_Y209]
# output 0.471

# input Let us now turn to GDKENYGLPQP [BUB1_Y538_N534D]
# output 0.794

# input Now the same for KQVEQYMSFHK [HCN1_Y417]
# output 0.555

# input One more sequence: WQQQSYLFSGI [CTNNB1_Y30_D32Y_YF]
# output 0.57

# input Param item: IEDNKYTAREG [HCK_Y411_E410K]
# output 0.543

# input Try this sequence too: ENPAKYDDIKK [GAPDH_Y255_K251N]
# output 0.582

# input Try the sequence HSGIFYKPESL [L2HGDH_Y103_YF]
# output 1.11

# input Next record, please: QSHKVYFQHLL [POR_Y604_V605F]
# output 0.503

# input Note, next up: GSPAPYRRRKR [MBD1_Y403_P401A]
# output 0.499

# input Repeat for the following sequence: DVFLKYLNFAT [PDE6B_Y212]
# output 0.44

# input Also, DRLAVYIDRVS [LMNA_Y45_R50S] please.
# output 0.5

# input Let us now turn to YGGLRYGYGVL [KRTAP20-2_Y13]
# output 0.608

# input Here is the next sequence: KGPNVYKKTVN [REV3L_Y1156]
# output 0.31

# input And what about the sequence FSAPNYCYRCG [PPP2CA_Y265] ?
# output 0.455
